Molecular target: T1, EsCas13d, nuclease-dead (Eubacterium siraeum, UniProt B0MS50, R295A;H300A;R849A;H854A)
T1 sequence: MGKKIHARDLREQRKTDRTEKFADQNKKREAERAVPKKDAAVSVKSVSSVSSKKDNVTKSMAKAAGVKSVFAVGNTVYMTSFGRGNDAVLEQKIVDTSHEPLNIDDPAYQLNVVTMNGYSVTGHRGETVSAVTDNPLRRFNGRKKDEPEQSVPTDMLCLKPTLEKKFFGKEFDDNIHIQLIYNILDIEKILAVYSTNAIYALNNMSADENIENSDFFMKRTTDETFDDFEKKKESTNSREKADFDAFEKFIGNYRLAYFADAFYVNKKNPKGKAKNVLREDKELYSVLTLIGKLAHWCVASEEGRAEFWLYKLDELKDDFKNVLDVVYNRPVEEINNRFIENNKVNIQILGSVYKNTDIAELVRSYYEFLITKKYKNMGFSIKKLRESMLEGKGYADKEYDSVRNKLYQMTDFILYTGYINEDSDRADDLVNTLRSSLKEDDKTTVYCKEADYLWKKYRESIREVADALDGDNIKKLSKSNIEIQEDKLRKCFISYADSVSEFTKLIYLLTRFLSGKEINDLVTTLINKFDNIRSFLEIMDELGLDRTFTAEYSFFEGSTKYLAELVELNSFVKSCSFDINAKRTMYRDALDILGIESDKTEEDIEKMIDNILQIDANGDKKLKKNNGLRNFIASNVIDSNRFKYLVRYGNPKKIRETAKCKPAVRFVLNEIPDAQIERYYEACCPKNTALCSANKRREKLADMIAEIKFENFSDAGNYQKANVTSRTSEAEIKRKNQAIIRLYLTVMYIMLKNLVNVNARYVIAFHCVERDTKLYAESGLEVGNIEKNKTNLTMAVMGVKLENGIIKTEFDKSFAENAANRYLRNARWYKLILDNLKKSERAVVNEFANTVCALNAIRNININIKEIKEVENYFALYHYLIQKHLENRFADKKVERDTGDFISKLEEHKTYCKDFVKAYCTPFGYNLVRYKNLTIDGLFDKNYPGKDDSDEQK
Assay: crRNA (strand 1, pre-loaded); Mg2+; 40 mM Tris-HCl pH 7.5, 150 mM NaCl, 6 mM MgCl2, 1 mM DTT, 0.1% Tween-20, 0.2 mg/ml BSA; 25 C; 10 min per concentration, then washed
Details: tags: His6-TwinStrep-SUMO cleaved; N-terminal SNAP kept (SNAP-Surface 488); label: 3' end held by stalled T7 RNA polymerase
Parameter: pKd. Scope: all listed entries.
Lab note: report pKd as minus log10 of the concentration in molar units, number only.

Some solved entries appear below for comparison.
# binder, measurement.label, observed.value
data = [
    ("target 1 U3G,C21A (mixed) RNA 1: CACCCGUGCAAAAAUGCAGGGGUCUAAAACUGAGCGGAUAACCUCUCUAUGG RNA 2: GGGAAUGGAUCCACAUCUACGAAUUCGUACAAUAGAGAGGUUAUCCGCGCACCGAGAUCGGAAGAGCACACGU", "pKd", 7.39),
    ("target 1 U10A,A20C (mixed) RNA 1: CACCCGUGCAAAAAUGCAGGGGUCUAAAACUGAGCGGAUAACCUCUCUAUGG RNA 2: GGGAAUGGAUCCACAUCUACGAAUUCGUACCCUAGAGAGGUAAUCCGCUCACCGAGAUCGGAAGAGCACACGU", "pKd", 7.32),
    ("target 2 MT 5'PFS GAG 3'PFS UUG (mixed) RNA 1: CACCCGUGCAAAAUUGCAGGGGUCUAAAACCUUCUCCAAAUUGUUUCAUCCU RNA 2: GGGAAUGGAUCCACAUCUACGAAUUCGAGAGGAUGAAACAAUUUGGAGAAGUUGAGAUCGGAAGAGCACACGU", "pKd", 8.07),
]

Continue with the binder presented below.
Problem: Find the recorded pKd belonging to target 2 MT 5'PFS CUG 3'PFS UAA (mixed) RNA 1: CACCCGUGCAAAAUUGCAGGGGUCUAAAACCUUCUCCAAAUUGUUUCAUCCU RNA 2: GGGAAUGGAUCCACAUCUACGAAUUCCUGAGGAUGAAACAAUUUGGAGAAGUAAAGAUCGGAAGAGCACACGU and report it.
Result: 8.56
